- Assayed Target: HiBiT tagged Wee1 (Homo sapiens)
- Sequence (P30291 whole entry): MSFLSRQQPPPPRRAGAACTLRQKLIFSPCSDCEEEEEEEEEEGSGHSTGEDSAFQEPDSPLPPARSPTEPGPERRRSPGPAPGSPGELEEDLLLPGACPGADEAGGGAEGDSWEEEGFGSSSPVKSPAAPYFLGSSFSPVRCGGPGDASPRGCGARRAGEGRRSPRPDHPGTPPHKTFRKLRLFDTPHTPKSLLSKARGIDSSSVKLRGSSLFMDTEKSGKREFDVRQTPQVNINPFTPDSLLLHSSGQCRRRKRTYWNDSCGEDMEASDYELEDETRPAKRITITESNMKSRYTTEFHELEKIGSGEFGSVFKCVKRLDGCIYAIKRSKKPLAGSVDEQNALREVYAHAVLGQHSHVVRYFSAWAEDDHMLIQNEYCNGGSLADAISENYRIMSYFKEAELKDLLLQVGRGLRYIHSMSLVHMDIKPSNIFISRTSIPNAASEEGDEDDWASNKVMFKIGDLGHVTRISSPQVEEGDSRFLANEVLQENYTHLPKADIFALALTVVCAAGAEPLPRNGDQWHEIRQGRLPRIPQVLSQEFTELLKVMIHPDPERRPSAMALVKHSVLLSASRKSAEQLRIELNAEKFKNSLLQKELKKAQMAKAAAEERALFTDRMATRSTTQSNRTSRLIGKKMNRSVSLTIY
- Assay Remarks: Wee1 protein degradation assay (HiBiT assay)
- Format: cell-based
- Condition Summary: engineered HT-1080 cells, 20 hours; maximum percentage of Wee1 degradation; read-out: HiBiT Wee1: Dmax
# maps each entry to its Dmax

Req: For HiBiT tagged Wee1 (Homo sapiens), provide Dmax of C=CCn1c(=O)c2cnc(Nc3ccc(N4CCN(CCC5CCN(C(=O)c6ccc(OC)c(N7CCC(=O)NC7=O)c6)CC5)CC4)cc3)nc2n1-c1cccc(C(C)(C)O)n1 please.
Resp: < 50%

Req: Hello, I am looking for reported Dmax with HiBiT tagged Wee1 (Homo sapiens) for C=CCn1c(=O)c2cnc(Nc3ccc(N4CCN(CC5CCN(c6ccc(NC7CCC(=O)NC7=O)nc6)CC5)CC4)cc3)nc2n1-c1ccc2c(n1)[C@@](O)(CC)CC2 (some centres unmarked) . Could you help?
Resp: 50 to 75%

Req: Requested read-out Dmax, target or system HiBiT tagged Wee1 (Homo sapiens), entry C=CCn1c(=O)c2cnc(Nc3ccc(N4CCC(CN5CCN(c6cccc7c6n(C)c(=O)n7C6CCC(=O)NC6=O)CC5)CC4)cc3)nc2n1-c1cccc(C(C)(C)O)n1 (centres unmarked)
Resp: > 75%

Req: Give the reported Dmax for C=CCn1c(=O)c2cnc(Nc3ccc(N4CCN(CC5CCN(c6ccc7c(N8CCC(=O)NC8=O)nn(C)c7c6)CC5)CC4)cc3)nc2n1-c1ccc2c(n1)[C@](C)(O)CC2 (system: HiBiT tagged Wee1 (Homo sapiens)).
Resp: > 75%

Now consider the entry below.
Req: Provide value of Dmax for this record tested with HiBiT tagged Wee1 (Homo sapiens): C=CCn1c(=O)c2cnc(Nc3ccc(N4CCC(N5CCN(c6cc7c(cc6F)C(=O)N(C6CCC(=O)NC6=O)C7=O)CC5)CC4)cc3)nc2n1-c1cccc(C(C)(C)O)n1 (centres unmarked)
Resp: 50 to 75%

---

- Assayed Target: HiBiT tagged Wee1 (Homo sapiens)
- Assay Remarks: Wee1 protein degradation assay (HiBiT assay)
- Assay type: cell-based
- Condition Summary: engineered HT-1080 cells, 20 hours
A collection of molecules and their measured DC50

Req: Entry C=CCn1c(=O)c2cnc(Nc3ccc(N4CCN(C5CCN(c6ccc(NC7CCC(=O)NC7=O)cc6F)CC5)[C@H](C)C4)cc3)nc2n1-c1ccc2c(n1)[C@@](O)(CC)CC2 (some centres unmarked) : reported DC50 = ?
Resp: < 0.1 µM

Req: # DC50 lookup, item C=CCn1c(=O)c2cnc(Nc3ccc(N4CCN(CC5CCN(c6cc7c(cc6F)c(N6CCC(=O)NC6=O)nn7C)CC5)CC4)nc3)nc2n1-c1ccc2c(n1)[C@@](O)(CC)CC2
Resp: < 0.1 µM

Req: So what's the measured DC50 for this one? C=CCn1c(=O)c2cnc(Nc3ccc(N4CCN(C5CCN(c6ccc(NC7CCC(=O)NC7=O)cc6F)CC5)CC4)cc3)nc2n1-c1ccc2c(n1)[C@@](O)(CC)CC2 (some centres unmarked) [Compound 155]
Resp: < 0.1 µM

Req: Using the record for O=C1CCC(N2C(=O)c3ccc(N4CCC(CCN5CCC(c6ccc(Nc7ncc8c(=O)n(-c9c(Cl)cccc9Cl)c9nccn9c8n7)cc6)CC5)CC4)cc3C2=O)C(=O)N1 (centres unmarked) , report its DC50.
Resp: 0.1 to 1 µM

Req: # query: DC50 of entry C=CCn1c(=O)c2cnc(Nc3ccc(N4CCC(CN5CCC(c6ccc7c(C8CCC(=O)NC8=O)nn(C)c7c6)CC5)CC4)cc3)nc2n1-c1cccc(C(C)(C)O)n1 (centres unmarked)
Resp: < 0.1 µM
